target: human F508del-CFTR (Homo sapiens, UniProt P13569, DEL508-508); experiment: F508del-CFTR cell surface expression (corrector activity), DiscoveRx ß-galactosidase complementation chemiluminescence assay in recombinant U2OS cell line; conditions: U2OS, in relation to the Emax of the corrector lumacaftor (=100%); U2OS cell line, 16h compound incubation; arithmetic mean values;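 further: U2OS cells co-expressing ProLink-tagged F508del-CFTR and a membrane-anchored enzyme acceptor, where more surface CFTR restores β-galactosidase activity measured by chemiluminescence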
Sequence (P13569 with tags, fused parts or gaps DEL508-508): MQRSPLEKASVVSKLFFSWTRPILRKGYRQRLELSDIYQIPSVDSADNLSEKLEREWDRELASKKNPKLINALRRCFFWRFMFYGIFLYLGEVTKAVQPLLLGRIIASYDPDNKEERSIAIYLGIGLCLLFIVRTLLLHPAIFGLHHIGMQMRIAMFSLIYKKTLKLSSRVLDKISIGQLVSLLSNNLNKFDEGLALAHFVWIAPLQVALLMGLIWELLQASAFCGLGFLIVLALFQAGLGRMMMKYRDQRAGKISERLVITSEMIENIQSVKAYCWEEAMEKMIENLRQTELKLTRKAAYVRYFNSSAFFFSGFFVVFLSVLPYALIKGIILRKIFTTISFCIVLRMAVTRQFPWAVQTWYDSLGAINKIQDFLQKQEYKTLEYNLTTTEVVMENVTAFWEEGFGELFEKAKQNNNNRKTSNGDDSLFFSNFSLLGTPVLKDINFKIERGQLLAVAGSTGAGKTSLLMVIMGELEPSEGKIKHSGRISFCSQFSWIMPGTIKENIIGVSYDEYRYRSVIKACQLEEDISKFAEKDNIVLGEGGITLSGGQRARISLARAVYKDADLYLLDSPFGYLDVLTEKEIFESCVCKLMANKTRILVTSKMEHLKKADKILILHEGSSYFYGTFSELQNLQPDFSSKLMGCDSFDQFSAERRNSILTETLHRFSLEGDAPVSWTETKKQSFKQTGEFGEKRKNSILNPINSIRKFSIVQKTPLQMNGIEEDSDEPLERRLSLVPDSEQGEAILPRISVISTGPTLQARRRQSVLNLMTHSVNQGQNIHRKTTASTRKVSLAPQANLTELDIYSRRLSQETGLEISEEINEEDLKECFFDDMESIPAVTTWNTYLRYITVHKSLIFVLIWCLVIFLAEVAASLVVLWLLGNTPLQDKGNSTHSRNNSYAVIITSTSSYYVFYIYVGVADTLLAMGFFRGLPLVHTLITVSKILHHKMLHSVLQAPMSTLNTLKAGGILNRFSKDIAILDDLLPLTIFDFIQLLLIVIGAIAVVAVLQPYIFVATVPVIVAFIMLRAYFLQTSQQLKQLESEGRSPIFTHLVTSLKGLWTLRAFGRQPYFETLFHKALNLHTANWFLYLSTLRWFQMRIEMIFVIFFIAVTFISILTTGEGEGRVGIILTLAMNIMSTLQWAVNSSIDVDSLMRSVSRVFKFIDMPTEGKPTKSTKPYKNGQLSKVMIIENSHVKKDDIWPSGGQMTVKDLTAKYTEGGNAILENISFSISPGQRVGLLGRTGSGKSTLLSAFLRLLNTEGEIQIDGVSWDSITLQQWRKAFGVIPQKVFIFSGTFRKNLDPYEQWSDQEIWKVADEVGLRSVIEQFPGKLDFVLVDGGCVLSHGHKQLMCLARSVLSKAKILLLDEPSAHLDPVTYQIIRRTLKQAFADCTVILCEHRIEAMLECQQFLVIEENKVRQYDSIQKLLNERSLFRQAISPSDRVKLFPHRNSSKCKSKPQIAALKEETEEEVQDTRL
We begin with a simple list: items and their reported Emax.
valueType: Emax (%)

1) COc1cc(CCNC(=O)[C@@H]2CC(=O)N(C)[C@@H](CC(C)C)C(=O)N3CCCC[C@@H]3C(=O)N[C@H](Cc3ccccc3)COc3ccc4nc(C)n(C)c4c3C(=O)N2)cc(OC)c1: 111
2) CC(C)C[C@H]1C(=O)N2CCN(C3CCC3)C[C@H]2C(=O)N[C@H](Cc2ccccc2)COc2cnc3ccccc3c2C(=O)N[C@H](C(=O)NCCc2ccc3c(c2)OCO3)CC(=O)N1C: 151
3) COc1cccc(CCNC(=O)[C@@H]2CC(=O)N(C)[C@@H](CC(C)C)C(=O)N3CCN(CC(C)C)C[C@@H]3C(=O)N[C@H](Cc3ccccc3)COc3ccc4ncn(C)c4c3C(=O)N2)c1: 201
4) CC(C)C[C@H]1C(=O)N(C)CC(=O)N[C@H](Cc2ccccc2)COc2ccc3ccccc3c2C(=O)N[C@H](C(=O)NCCc2ccc3c(c2)OCO3)CC(=O)N1C: 251
5) COCCCCCNC(=O)[C@@H]1CC(=O)N(C)[C@@H](CC(C)C)C(=O)N(CCC2CCCCC2)CC(=O)N[C@H](Cc2ccccc2)COc2cccc(OC)c2C(=O)N1: 102
6) COc1cc(OC)c2c(c1)OC[C@@H](Cc1ccccc1)NC(=O)CN(CCC1CCCCC1)C(=O)[C@H](CC(C)C)N(C)C(=O)C[C@@H](C(=O)NCCc1ccc3c(c1)OCC3)NC2=O: 333
7) CN1C(=O)C[C@@H](C(=O)NCCc2ccc3c(c2)OCO3)NC(=O)c2c(ccc3ccccc23)OC[C@@H](Cc2ccccc2)NC(=O)CN(CCC2CCCCC2)C(=O)[C@@H]1CC1CCCC1 (racemic): 260
8) COc1cc2c(cc1OC)C(=O)N[C@H](C(=O)NCCc1ccc3c(c1)CCCO3)CC(=O)N(C)[C@@H](CC(C)C)C(=O)N(C)CC(=O)N[C@H](Cc1ccccc1)CO2: 151
9) CC(C)C[C@H]1C(=O)N2CCN(C3CCC3)C[C@@H]2C(=O)N[C@H](Cc2ccccc2)COc2cnc3ccccc3c2C(=O)N[C@H](C(=O)NCCc2ccc3c(c2)OCO3)CC(=O)N1C: 316
10) CC(C)C[C@H]1C(=O)N(C)CC(=O)N[C@H](Cc2ccccc2)COc2cc3c(cc2C(=O)N[C@H](C(=O)NCCc2ccc4c(c2)OCCO4)CC(=O)N1C)OCO3: 213
11) [2H]C([2H])([2H])Oc1cccc2c1C(=O)N[C@H](C(=O)NCCc1ccc3c(c1)OCO3)CC(=O)N(C)[C@@H](CC(C)C)C(=O)N(CCC1CCCCC1)CC(=O)N[C@H](Cc1ccccc1)CO2: 232
12) CCc1nc(CCNC(=O)[C@@H]2CC(=O)N(C)[C@@H](CC(C)C)C(=O)N3CCOC[C@@H]3C(=O)N[C@H](Cc3ccccc3)COc3ccc4ccccc4c3C(=O)N2)no1: 247
13) [2H]C([2H])([2H])Oc1cccc2c1C(=O)N[C@H](C(=O)NCCc1cccc(OC)c1)CC(=O)N(C)[C@@H](CC(C)C)C(=O)N(CCC1CCCCC1)CC(=O)N[C@H](Cc1ccccc1)CO2: 232
14) COc1cccc(CCNC(=O)[C@@H]2CC(=O)N(C)CC(=O)N(CCC3CCCCC3)CC(=O)N[C@H](Cc3ccccc3)COc3cccc(OC)c3C(=O)N2)c1: 117
15) CC(C)C[C@H]1C(=O)N(C)CC(=O)N[C@H](Cc2ccccc2)COc2ccc(F)cc2C(=O)N[C@H](C(=O)NCCc2ccc3c(c2)OCO3)CC(=O)N1C: 110
16) CC(C)C[C@H]1C(=O)N(CCCOCc2ccccc2)CC(=O)N[C@H](Cc2ccccc2)COc2cc3c(cc2C(=O)N[C@H](C(=O)NCCc2ccc4c(c2)OCO4)CC(=O)N1C)OCO3 (racemic): 112
17) CCOc1cccc(CCNC(=O)[C@@H]2CC(=O)N(C)[C@@H](CC(C)C)C(=O)N(C)CC(=O)N[C@H](Cc3ccccc3)COc3cc(OC)c(OC)cc3C(=O)N2)c1: 178
18) COc1cccc2c1C(=O)N[C@H](C(=O)NCCc1ccc3c(c1)OCCO3)CC(=O)N(C)[C@@H](CC(C)C)C(=O)N(CCC1CCCCC1)CC(=O)N[C@H](Cc1ccccc1)CO2: 259
19) COc1cccc2c1C(=O)N[C@H](C(=O)NCCc1cccc(OC(F)F)c1)CC(=O)N(C)[C@@H](CC(C)C)C(=O)N(CCC1CCCCC1)CC(=O)N[C@H](Cc1ccccc1)CO2: 130
20) CC(C)C[C@H]1C(=O)N(CCC2CCCO2)CC(=O)N[C@H](Cc2ccccc2)COc2ccc3ccccc3c2C(=O)N[C@H](C(=O)NCCc2ccc3c(c2)OCO3)CC(=O)N1C (some centres unmarked): 183

Cited source for all entries: patent US20240208992A1
